assay: Molar enthalpy of transition or fusion; conditions: Crystal; DSC
Readout label: Molar enthalpy of transition or fusion (kcal/mol)
The reply should be a number in kcal/mol, with the unit left off.

query: Returns the measured Molar enthalpy of transition or fusion for the input compound. Input: c1ccc(-c2ccccc2)cc1 [biphenyl]
result: 4.61

query: Fill in: Molar enthalpy of transition or fusion of Nc1cccc(O)c1 [3-hydroxybenzenamine] is ___
result: 6.6

query: Consider the compound shown here: O=Cc1cccc(O)c1 [3-hydroxybenzaldehyde] What is its recorded Molar enthalpy of transition or fusion?
result: 5.76

query: Fill in the blank: the reported Molar enthalpy of transition or fusion of Clc1ccc(Br)cc1 [1-bromo-4-chlorobenzene] is ____.
result: 4.76
